These measurements were taken from patent US12528814B2.

Biological target: IRAK4 (Homo sapiens (Human))
Sequence (Q9NWZ3 whole entry, species assumed): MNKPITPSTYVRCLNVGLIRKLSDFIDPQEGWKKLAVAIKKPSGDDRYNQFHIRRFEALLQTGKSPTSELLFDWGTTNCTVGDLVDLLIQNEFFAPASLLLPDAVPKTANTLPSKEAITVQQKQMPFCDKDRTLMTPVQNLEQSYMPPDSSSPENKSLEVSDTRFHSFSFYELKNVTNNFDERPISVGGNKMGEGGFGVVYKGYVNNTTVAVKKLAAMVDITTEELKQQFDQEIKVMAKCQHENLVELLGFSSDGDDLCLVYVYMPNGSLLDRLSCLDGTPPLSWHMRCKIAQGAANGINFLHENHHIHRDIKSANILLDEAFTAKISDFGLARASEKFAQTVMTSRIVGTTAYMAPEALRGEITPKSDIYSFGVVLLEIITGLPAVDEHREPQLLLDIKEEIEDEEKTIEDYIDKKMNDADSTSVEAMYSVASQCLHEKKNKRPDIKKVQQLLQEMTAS
Assay: IRAK4 Biochemical HTRF Kinase Assay
Conditions: Table 5; multiple runs; read-out: IRAK4 HTRF biochemical: IC50
Rule: IC50 below 2 nM gives True, anything at or above gives False.

• CC(C)Nc1cc(-c2ccc3cc(C#N)cnn23)ncc1-c1nnc(N2CCN(C(=O)CCCCCCCNc3cccc4c3C(=O)N(C3CCC(=O)NC3=O)C4=O)CC2)s1 (stereo not shown) = True
• CC(C)Nc1cc(-c2ccc3cc(C#N)cnn23)ncc1-c1nnc(N2CCN(CCC3CCN(c4ccc5c(c4)C(=O)N(C4CCC(=O)NC4=O)C5=O)CC3)CC2)s1 (stereo not shown) = True
• CC(C)Nc1cc(-c2ccc3cc(C#N)cnn23)ncc1-c1nnc(N2CCN(CCCc3ccc4c(c3)CN(C3CCC(=O)NC3=O)C4=O)CC2)s1 (stereo not shown) = True
• N#Cc1cnn2c(-c3cc(NC4CCOCC4)c(-c4nnc(C56CCC(NC(=O)CCOCCOCCOCCNc7cccc8c7C(=O)N(C7CCC(=O)NC7=O)C8=O)(CC5)CC6)s4)cn3)ccc2c1 (stereo not shown) = True
• Cc1ncsc1-c1ccc(CNC(=O)[C@@H]2C[C@@H](O)CN2C(=O)[C@@H](NC(=O)C2(F)CC2)C(C)(C)C)c(OCCOCCC(=O)N2CCN(c3nnc(-c4cnc(-c5ccc6cc(C#N)cnn56)cc4NC(C)C)s3)CC2)c1 = False
• CNc1cc(-c2ccc3cc(C#N)cnn23)ncc1-c1nnc(C23CCC(NC(=O)CN4CCC5(CC4)CN(c4ccc6c(c4)C(=O)N(C4CCC(=O)NC4=O)C6=O)C5)(CC2)CC3)s1 (stereo not shown) = True
• CNc1cc(-c2ccc3cc(C#N)cnn23)ncc1-c1nnc(N2CCN(CCC3CCN(c4ccc5c(c4)C(=O)N(C4CCC(=O)NC4=O)C5=O)CC3)CC2)s1 (stereo not shown) = True
• CNc1cc(-c2ccc3cc(C#N)cnn23)ncc1-c1nnc(C23CCC(NC(=O)CCCCCCCNc4ccc5c(c4)C(=O)N(C4CCC(=O)NC4=O)C5=O)(CC2)CC3)s1 (stereo not shown) = False
• CNc1cc(-c2ccc3cc(C#N)cnn23)ncc1-c1nnc([C@H]2CC[C@@H](NC(=O)CN3CCC4(CC3)CN(c3ccc5c(c3)C(=O)N(C3CCC(=O)NC3=O)C5=O)C4)CC2)s1 (stereo partly shown) = True
• Cc1ncsc1-c1ccc([C@H](C)NC(=O)[C@@H]2C[C@@H](O)CN2C(=O)[C@@H](NC(=O)CCCCC(=O)N2CCN(c3nnc(-c4cnc(-c5ccc6cc(C#N)cnn56)cc4NC(C)C)s3)CC2)C(C)(C)C)cc1 = False
